From: patent US11053239B2

test system: DOHH2 cells; assay: Cell proliferation assay (MTS), DOHH2 cells; assay type: cell-based; conditions: Homo sapiens, DOHH-2, 120 h, DOHH2 (DSMZ ACC 47) cell proliferation, 5000 cells/well, 120 h, MTS; mechanism-based readout of Bcl-2 inhibition; read-out: DOHH2 IC50
value_type: IC50 (µM)
Just the number please, in µM, no unit attached.

Record request: IC50 value, item C[C@@H](CN1CCP(C)(=O)CC1)Nc1ccc(S(=O)(=O)NC(=O)c2ccc(N3CCN(CC4=C(c5ccc(Cl)cc5)CC(C)(C)CC4)CC3)cc2Oc2cnc3[nH]ccc3c2)cc1[N+](=O)[O-] 0.132

Record request: IC50 value, item CCS(=O)(CC)=NC1CCC(CNc2ccc(S(=O)(=O)NC(=O)c3ccc(N4CCN(CC5=C(c6ccc(Cl)cc6)CC(C)(C)CC5)CC4)cc3Oc3cnc4[nH]ccc4c3)cc2[N+](=O)[O-])CC1 (centres unmarked) 0.067

Record request: IC50 value, item CC(=O)N=S1(=O)CCN(C[C@H](C)Nc2ccc(S(=O)(=O)NC(=O)c3ccc(N4CCN(CC5=C(c6ccc(Cl)cc6)CC(C)(C)CC5)CC4)cc3Oc3cnc4[nH]ccc4c3)cc2[N+](=O)[O-])CC1 0.084

Record request: IC50 value, item C[C@@H](CN1CCP(C)(=O)CC1)Nc1ccc(S(=O)(=O)NC(=O)c2ccc(N3CCN(CC4=C(c5ccc(Cl)cc5)CC(C)(C)CC4)CC3)cc2Oc2cnc3[nH]ccc3c2)cc1S(=O)(=O)C(F)(F)F 0.107

Record request: IC50 value, item CC1(C)CCC(CN2CCN(c3ccc(C(=O)NS(=O)(=O)c4ccc(NCCN5CCS(=O)(=NC6CC6)CC5)c([N+](=O)[O-])c4)c(Oc4cnc5[nH]ccc5c4)c3)CC2)=C(c2ccc(Cl)cc2)C1 0.181
